# System: bovine pituitary cells
# ASSAY PROTOCOL: GnRH-induced LH secretion of bovine pituitary cells in vitro (Example 9)
# Format: cell-based
# CONDITION CONTEXT: challenged with 1 nM GnRH 30 minutes after 60 minutes preincubation; 300 μg cetrorelix, 340 μg Degarelix, 300 ug Abarelix, 130 μg Relugolix
# Description: Methods: The heads of mature, non-pregnant cows (n=4) were collected from a local abattoir and the pituitary glands were dissected within 60 minutes of slaughter. […] Treatments: Based on the results from the pilot study, the selected concentration for Cetrorelix (cetrorelix acetate) was 300 μg. […] LH concentrations in the culture medium was measured by a commercial bovine specific ELISA kit and reported as mIU/ml of medium.
Square brackets hold non-standard residues; d marks the D form. Peptide text beside a SMILES is read from it. dPhe(4-Cl) = N[C@H](Cc1ccc(Cl)cc1)C(=O)O; d2Nal = N[C@H](Cc1ccc2ccccc2c1)C(=O)O; Lys(iPr) = CC(C)NCCCC[C@H](N)C(=O)O; NMeY = CN[C@@H](Cc1ccc(O)cc1)C(=O)O; d3Pal = N[C@H](Cc1cccnc1)C(=O)O
READOUT TYPE: LH conc in medium (mIU/mL)
Value expressed in mIU/mL; do not type the unit.

Field request: LH conc in medium | item: CC(=O)N[C@H](Cc1ccc2ccccc2c1)C(=O)N[C@H](Cc1ccc(Cl)cc1)C(=O)N[C@H](Cc1cccnc1)C(=O)N[C@@H](CO)C(=O)N(C)[C@@H](Cc1ccc(O)cc1)C(=O)N[C@H](CC(N)=O)C(=O)N[C@@H](CC(C)C)C(=O)N[C@@H](CCCCNC(C)C)C(=O)N1CCC[C@H]1C(=O)N[C@H](C)C(N)=O [Abarelix] (Ac-[d2Nal][dPhe(4-Cl)][d3Pal]S[NMeY][dN]L[Lys(iPr)]P[dA]-NH2)
2.21
